Molecular target: rat EP2 prostaglandin E2 receptor (Rattus norvegicus, UniProt Q62928)
Sequence (Q62928 whole entry): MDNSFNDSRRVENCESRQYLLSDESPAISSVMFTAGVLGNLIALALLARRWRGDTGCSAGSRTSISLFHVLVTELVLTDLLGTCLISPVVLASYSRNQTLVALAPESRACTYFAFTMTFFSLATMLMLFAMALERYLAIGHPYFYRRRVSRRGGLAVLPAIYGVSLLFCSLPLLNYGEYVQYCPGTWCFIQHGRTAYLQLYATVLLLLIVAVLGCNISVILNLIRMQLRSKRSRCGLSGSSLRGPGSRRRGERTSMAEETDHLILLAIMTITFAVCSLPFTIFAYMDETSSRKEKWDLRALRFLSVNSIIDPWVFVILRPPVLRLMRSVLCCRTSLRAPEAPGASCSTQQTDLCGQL
Reported IC50 is given for each of the following molecules.
measure: IC50 (µM)

>>> observed_result("CC(C)(C(=O)O)c1ccc(CN(Cc2cccc(OCC(=O)O)c2)S(=O)(=O)c2cccnc2)cc1 [Metabolite M3]")
0.75
>>> observed_result("CC(C)(CO)c1ccc(CN(Cc2cccc(OCC(=O)O)c2)S(=O)(=O)c2cccnc2)cc1 [Metabolite M4]")
0.17
